Each item that follows carries a reported Inhibition Ca2+ channel (L, diltiazem site) (antagonist radioligand).
# Tested on: Ca2+ channel (L, diltiazem site)
# procedure_details: Ca2+ channel (L, diltiazem site) (antagonist radioligand)
# conditions: 10 µM
assay_endpoint: Inhibition Ca2+ channel (L, diltiazem site) (antagonist radioligand)

1) O=C1CO[C@H]2CCN(C(=O)N3CC4(CC(CC5=C6C=CC(c7ccc[nH]7)=[N+]6[B-](F)(F)n6cccc65)C4)C3)C[C@H]2N1 = 6,20%
2) O=C(O[C@H](CO)C(F)(F)F)N1CC2(CC(CC3=C4C=CC=[N+]4[B-](F)(F)n4cccc43)C2)C1 = 20,60%
3) O=C(OC(C(F)(F)F)C(F)(F)F)N1CC2(CC(CC3=C4C=CC(c5ccc[nH]5)=[N+]4[B-](F)(F)n4cccc43)C2)C1 = 9,70%
4) O=C(OC(C(F)(F)F)C(F)(F)F)N1CC2(CC(CC3=C4C=CC=[N+]4[B-](F)(F)n4cccc43)C2)C1 = -14,00%
5) O=C(N1CC2(CC(CC3=C4C=CC=[N+]4[B-](F)(F)n4cccc43)C2)C1)N1CC2(CC(n3cnc(C4CC4)n3)C2)C1 = 1,70%

###

Each item that follows carries a reported inhibition at 10 µM.
# experimental_system: Estrogen ER alpha (h) (Homo sapiens, UniProt P03372)
# Sequence (P03372 whole entry): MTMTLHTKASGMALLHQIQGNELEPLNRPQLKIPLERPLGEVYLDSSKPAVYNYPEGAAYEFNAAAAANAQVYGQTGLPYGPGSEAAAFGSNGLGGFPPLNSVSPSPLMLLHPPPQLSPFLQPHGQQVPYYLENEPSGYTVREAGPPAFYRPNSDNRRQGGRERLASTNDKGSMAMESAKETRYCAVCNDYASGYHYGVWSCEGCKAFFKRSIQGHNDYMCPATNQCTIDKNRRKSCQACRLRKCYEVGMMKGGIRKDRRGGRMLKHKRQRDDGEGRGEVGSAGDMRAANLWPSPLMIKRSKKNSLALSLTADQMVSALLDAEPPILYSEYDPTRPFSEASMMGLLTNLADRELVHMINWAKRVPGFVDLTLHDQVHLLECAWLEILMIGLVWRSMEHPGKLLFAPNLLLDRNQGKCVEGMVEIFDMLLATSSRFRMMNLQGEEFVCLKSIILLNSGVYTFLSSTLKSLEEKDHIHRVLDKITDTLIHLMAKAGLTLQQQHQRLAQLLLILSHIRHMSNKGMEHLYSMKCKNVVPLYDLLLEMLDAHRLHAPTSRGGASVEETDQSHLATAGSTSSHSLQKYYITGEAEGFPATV
# procedure_details: Estrogen ER alpha (h) (agonist radioligand)
# conditions: read-out: Inhibition Estrogen ER alpha (h) (agonist radioligand)
assay_endpoint: inhibition at 10 µM (%)

1) O=C(N1CC2(CC(CC3=C4C=CC=[N+]4[B-](F)(F)n4cccc43)C2)C1)N1CC2(CC(n3cnc(C4CC4)n3)C2)C1 = 35
2) O=C(OC(C(F)(F)F)C(F)(F)F)N1CC2(CC(CC3=C4C=CC=[N+]4[B-](F)(F)n4cccc43)C2)C1 = -0.8
3) O=C(OC(C(F)(F)F)C(F)(F)F)N1CC2(CC(CC3=C4C=CC(c5ccc[nH]5)=[N+]4[B-](F)(F)n4cccc43)C2)C1 = -13.7
4) O=C(O[C@H](CO)C(F)(F)F)N1CC2(CC(CC3=C4C=CC=[N+]4[B-](F)(F)n4cccc43)C2)C1 = 17.8
5) O=C1CO[C@H]2CCN(C(=O)N3CC4(CC(CC5=C6C=CC(c7ccc[nH]7)=[N+]6[B-](F)(F)n6cccc65)C4)C3)C[C@H]2N1 = -2.5

###

# experimental_system: UniProtKB Q8R431
# Sequence (Q8R431 whole entry): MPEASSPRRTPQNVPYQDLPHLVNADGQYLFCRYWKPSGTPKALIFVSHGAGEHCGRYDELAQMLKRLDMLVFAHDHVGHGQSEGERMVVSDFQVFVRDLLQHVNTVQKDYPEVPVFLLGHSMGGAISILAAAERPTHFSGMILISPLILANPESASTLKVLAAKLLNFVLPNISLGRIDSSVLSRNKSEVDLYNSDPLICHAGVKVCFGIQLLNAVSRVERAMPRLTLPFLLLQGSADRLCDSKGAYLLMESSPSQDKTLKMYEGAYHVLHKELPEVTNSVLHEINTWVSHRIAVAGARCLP
# procedure_details: Native MS (RapidFire) 2-AG substrate assay, purified rat MAGL
# Format: biochemical
# conditions: purified rat MAGL, native MS substrate assay; read-out: IC50 rMAGL
Assign labels as follows, please: y for IC50 below 0.7 nM; n for IC50 equal to or exceeding 0.7 nM.

1) O=C1CO[C@H]2CCN(C(=O)N3CC4(CC(CC5=C6C=CC=[N+]6[B-](F)(F)n6cccc65)C4)C3)C[C@H]2N1 = n
2) O=C(O[C@H](CO)C(F)(F)F)N1CC2(CC(CC3=C4C=CC=[N+]4[B-](F)(F)n4cccc43)C2)C1 = y
3) O=C(N1CC2(CC(CC3=C4C=CC(c5ccc[nH]5)=[N+]4[B-](F)(F)n4cccc43)C2)C1)N1CC2(CC(n3cnc(C4CC4)n3)C2)C1 = n
4) O=C(O[C@H](CO)C(F)(F)F)N1CC2(CC(CC3=C4C=CC(c5ccc[nH]5)=[N+]4[B-](F)(F)n4cccc43)C2)C1 = y
5) O=C(OC(C(F)(F)F)C(F)(F)F)N1CC2(CC(CC3=C4C=CC=[N+]4[B-](F)(F)n4cccc43)C2)C1 = y
6) O=C(N1CC2(CC(CC3=C4C=CC=[N+]4[B-](F)(F)n4cccc43)C2)C1)N1CC2(CC(n3cnc(C4CC4)n3)C2)C1 = n
7) O=C1CO[C@H]2CCN(C(=O)N3CC4(CC(CC5=C6C=CC(c7ccc[nH]7)=[N+]6[B-](F)(F)n6cccc65)C4)C3)C[C@H]2N1 = y

Sourced from paper PMC11951083
